Data origin, for the record: paper PMC12165799

Assay remarks: HPLC retention time on C18 reverse-phase column
Assay type: physicochemical
Rule: rT (HPLC retention time) below 20 min gives condition met, anything at or above gives condition not met.

1. H-GLFKVIKKVASVI-NH2 [CIT-3] : condition met
2. H-GLFSVIKKLLSVI-NH2 [CIT-6] : condition not met
3. H-GLFKVIKKLLKVI-NH2 [CIT-8] : condition not met
4. H-GLFDVIKKLLSVI-NH2 [CIT-5] : condition not met
5. H-GLFSVIKKVASVI-NH2 [CIT-2] : condition met

Input: Bench note: check whether H-GLFKVIKKVAKVI-NH2 [CIT-4] shows rT (HPLC retention time) below 20 min
Output: condition met

Input: Bench note: check whether H-GLFDVIKKVASVI-NH2 [CIT-1] shows rT (HPLC retention time) below 20 min
Output: condition met
